- MEASURED_TARGET: Aurora1 (Aurora-B) (Homo sapiens)
pIC50: −log10 of the molar value. Structures can show the parent of a compound that is named as a salt.
TEST_READOUT: pIC50

> print(dat)
                                   compound  endpoint.result
1  CCOC(=O)c1[nH]cc2c1NC1=C(C(=O)CNC1)C2c1ccc(Sc2nc3cc(Cl)ccc3[nH]2)o1 (stereo not shown) [Example 131, hydrochloride]             8.00
2  CC1(C)CC(=O)C2=C(C1)Nc1n[nH]cc1C2c1ccc(Sc2nc3cc(Cl)ccc3o2)o1 (stereo not shown) [Example 90]             6.71
3  O=C1CNCC2=C1C(c1ccc(Sc3nc4cc(F)cc(F)c4[nH]3)o1)c1c[nH]nc1N2 (stereo not shown) [Example 145, hydrochloride]             7.80
4  CCOC(=O)c1[nH]cc2c1NC1=C(C(=O)CNC1)C2c1ccc(Sc2nc3cc(Cl)cc(C)c3[nH]2)o1 (stereo not shown) [Example 138, hydrochloride]             8.22
5  CCOC(=O)c1[nH]cc2c1NC1=C(C(=O)CCC1)C2c1ccc(Sc2nc3c(F)c(F)c(F)cc3[nH]2)o1 (stereo not shown) [Example 122]             8.15
6  CCOC(=O)c1[nH]cc2c1NC1=C(C(=O)CNC1)C2c1ccc(Sc2nc3ccccc3[nH]2)o1 (stereo not shown) [Example 104]             8.15
7  CC1(C)CC(=O)C2=C(C1)Nc1n[nH]cc1C2c1ccc(Sc2nc3ccccc3[nH]2)o1 (stereo not shown) [Example 4]             8.40

###

- MEASURED_TARGET: Aurora2 (Aurora-A) (Homo sapiens, UniProt O14965)
- Construct: Aurora-A: the full length recombinant protein including an N-terminal poly-histidine tail has been expressed in E. coli; poly-histidine (N)
- Sequence (O14965 whole entry): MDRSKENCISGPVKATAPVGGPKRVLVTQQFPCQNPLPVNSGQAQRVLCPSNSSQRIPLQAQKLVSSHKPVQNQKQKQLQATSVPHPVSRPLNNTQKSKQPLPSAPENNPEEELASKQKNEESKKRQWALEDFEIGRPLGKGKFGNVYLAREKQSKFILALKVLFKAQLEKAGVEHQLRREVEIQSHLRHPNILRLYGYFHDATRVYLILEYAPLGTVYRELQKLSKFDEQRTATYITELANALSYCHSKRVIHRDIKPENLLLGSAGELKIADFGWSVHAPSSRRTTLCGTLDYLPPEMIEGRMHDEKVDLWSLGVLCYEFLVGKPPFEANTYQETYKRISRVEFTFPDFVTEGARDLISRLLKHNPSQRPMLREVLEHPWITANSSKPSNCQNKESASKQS
- ASSAY_EXPLANATION: Aurora 2 (Aurora A) kinase radioactivity scintillation assay using nickel chelate Flash plates
- EXPERIMENTAL_CONTEXT: 10 nM Aurora-A, 500 nM NuMA substrate, 1 μM ATP with [33P] ATP, 10 mM MgCl2, 30 minutes, 37° C.
Structures can show the parent of a compound that is named as a salt.
TEST_READOUT: IC50 (nM)

> print(dat)
                                    compound  test.readout  endpoint.result
 1  O=C1CC(c2ccc(Cl)cc2Cl)CC2=C1C(c1ccc(Sc3nc4ccccc4[nH]3)o1)c1c[nH]nc1N2 (stereo not drawn) [Example 33]          IC50              179
 2  CCOC(=O)c1[nH]cc2c1NC1=C(C(=O)CNC1)C2c1ccc(Sc2nc3cc(Cl)ccc3[nH]2)o1 (stereo not drawn) [Example 131, hydrochloride]          IC50               82
 3  O=C1CCCC2=C1C(c1ccc(-c3ccc(Cl)cc3)o1)c1c[nH]nc1N2 (stereo not drawn) [Example 27]          IC50             4920
 4  CC1(C)CC(=O)C2=C(C1)Nc1n[nH]cc1C2c1ccc(Sc2nc3cc(C(F)(F)F)ccc3[nH]2)o1 (stereo not drawn) [Example 96]          IC50               58
 5  CCOC(=O)c1[nH]cc2c1NC1=C(C(=O)CNC1)C2c1ccc(Sc2nc3cc(Cl)c(C)cc3[nH]2)o1 (stereo not drawn) [Example 135, hydrochloride]          IC50              120
 6  Cc1ccc2[nH]c(Sc3ccc(C4C5=C(CC(C)(C)CC5=O)Nc5n[nH]cc54)s3)nc2c1 (stereo not drawn) [Example 102]          IC50              596
 7  O=C1CCCC2=C1C(c1ccc(Sc3nc4cc(Cl)ccc4s3)o1)c1c[nH]nc1N2 (stereo not drawn) [Example 73]          IC50               35
 8  CCOC(=O)c1[nH]cc2c1NC1=C(C(=O)CNC1)C2c1ccc(Sc2nc3cc(Cl)cc(C)c3[nH]2)o1 (stereo not drawn) [Example 138, hydrochloride]          IC50                8
 9  O=C1CCCC2=C1C(c1ccc(Sc3nc4cc(C(F)(F)F)ccc4[nH]3)o1)c1cn[nH]c1N2 (stereo not drawn) [Example 95]          IC50               61
10  O=C1CNCC2=C1C(c1ccc(Sc3nc4cc(F)cc(F)c4[nH]3)o1)c1c[nH]nc1N2 (stereo not drawn) [Example 145, hydrochloride]          IC50              131
11  Cc1c[nH]c(Sc2ccc(C3C4=C(CCCC4=O)Nc4n[nH]cc43)o2)n1 (stereo not drawn) [Example 78]          IC50              331
12  O=C1CCCCC2=C1C(c1ccc(Sc3nc4ccccc4[nH]3)o1)c1c[nH]nc1N2 (stereo not drawn) [Example 41]          IC50               29
13  CCOC(=O)c1[nH]cc2c1NC1=C(C(=O)CCC1)C2c1ccc(Sc2nc3cc(C(F)(F)F)ccc3[nH]2)o1 (stereo not drawn) [Example 132]          IC50              114
14  CC1(C)CC(=O)C2=C(C1)Nc1c(c[nH]c1C(N)=O)C2c1ccc(Sc2nc3ccccc3[nH]2)o1 (stereo not drawn) [Example 125]          IC50               23
15  O=C1CCCC2=C1C(c1cccc(Oc3ccc(Cl)cc3)c1)c1c[nH]nc1N2 (stereo not drawn) [Example 22]          IC50             2320

###

pIC50: −log10 of the molar value. Structures can show the parent of a compound that is named as a salt.
Aurora1 (Aurora-B) (Homo sapiens, UniProt Q96GD4) data, read-out pIC50
Sequence (Q96GD4 whole entry, species assumed): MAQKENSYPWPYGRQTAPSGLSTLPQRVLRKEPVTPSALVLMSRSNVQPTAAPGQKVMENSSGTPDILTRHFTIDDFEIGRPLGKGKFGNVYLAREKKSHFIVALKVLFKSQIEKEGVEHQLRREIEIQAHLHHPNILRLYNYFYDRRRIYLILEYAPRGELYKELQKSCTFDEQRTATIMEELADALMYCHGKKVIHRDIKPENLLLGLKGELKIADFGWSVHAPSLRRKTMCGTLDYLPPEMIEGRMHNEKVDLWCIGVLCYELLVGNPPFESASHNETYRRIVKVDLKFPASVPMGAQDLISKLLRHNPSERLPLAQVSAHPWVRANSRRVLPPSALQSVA
Sequence (Q9NQS7 821-918 partner limits assumed, species assumed): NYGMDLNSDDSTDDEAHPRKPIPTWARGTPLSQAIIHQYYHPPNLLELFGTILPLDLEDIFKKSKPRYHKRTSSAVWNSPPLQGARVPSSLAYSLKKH
TEST_READOUT: pIC50

> print(dat)
                                   molecule  endpoint.result
1  O=C1CCCC2=C1C(c1ccc(Sc3nc4cc(Cl)c(Cl)cc4[nH]3)o1)c1c[nH]nc1N2 (stereo not shown)             8.05
2  CC1(C)CCC2=C(C1=O)C(c1ccc(Sc3nc4ccccc4[nH]3)o1)c1c[nH]nc1N2 (stereo not shown)             8.30
3  COc1ccc2[nH]c(Sc3ccc(C4C5=C(CC(C)(C)CC5=O)Nc5n[nH]cc54)o3)nc2c1 (stereo not shown)             7.96
4  O=C1CNCC2=C1C(c1ccc(Sc3nc4ccccc4[nH]3)o1)c1c[nH]nc1N2 (stereo not shown)             7.08
5  O=C1CNCC2=C1C(c1ccc(Sc3nc4cc(Cl)c(Cl)cc4[nH]3)o1)c1c[nH]nc1N2 (stereo not shown)             7.77
6  CCOC(=O)c1[nH]cc2c1NC1=C(C(=O)CNC1)C2c1ccc(Sc2nc3cc(F)ccc3[nH]2)o1 (stereo not shown) [Example 149, hydrochloride]             7.96
7  CCOC(=O)c1[nH]cc2c1NC1=C(C(=O)CCC1)C2c1ccc(Sc2nc3cc(Cl)c(Cl)cc3[nH]2)o1 (stereo not shown)             8.22

###

IC50 listing for selected compounds.
- MEASURED_TARGET: Aurora1 (Aurora-B) (Homo sapiens, UniProt Q96GD4)
TEST_READOUT: IC50 (nM)

> print(dat)
                                   compound                           measured.target  test.readout  endpoint.result
1  Cn1c(Sc2ccc(C3C4=C(CNCC4=O)Nc4n[nH]cc43)o2)nc2ccccc21 (centres unmarked)  Aurora1 (Aurora-B) (Homo sapiens, UniProt Q96GD4)          IC50             5020
2  COc1ccc2[nH]c(Sc3ccc(C4C5=C(CNCC5=O)Nc5n[nH]cc54)o3)nc2c1 (centres unmarked)  Aurora1 (Aurora-B) (Homo sapiens, UniProt Q96GD4)          IC50               41
3  O=C1CCCC2=C1C(c1ccc(Sc3ccccn3)o1)c1c[nH]nc1N2 (centres unmarked)  Aurora1 (Aurora-B) (Homo sapiens, UniProt Q96GD4)          IC50             3400
4  O=C1CC(c2ccccc2F)CC2=C1C(c1ccc(Sc3nc4ccccc4[nH]3)o1)c1c[nH]nc1N2 (centres unmarked)  Aurora1 (Aurora-B) (Homo sapiens, UniProt Q96GD4)          IC50                7
5  Cc1c[nH]c(Sc2ccc(C3C4=C(CCCC4=O)Nc4n[nH]cc43)o2)n1 (centres unmarked)  Aurora1 (Aurora-B) (Homo sapiens, UniProt Q96GD4)          IC50              121
6  CCOC(=O)c1[nH]cc2c1NC1=C(C(=O)CCC1)C2c1ccc(Sc2nc3cc4c(cc3[nH]2)OC(F)(F)O4)o1 (centres unmarked)  Aurora1 (Aurora-B) (Homo sapiens, UniProt Q96GD4)          IC50               19
7  Cn1c(-c2ccc(Cl)cc2)cnc1Sc1ccc(C2C3=C(CNCC3=O)Nc3n[nH]cc32)o1 (centres unmarked)  Aurora1 (Aurora-B) (Homo sapiens, UniProt Q96GD4)          IC50             1220
8  CCOC(=O)c1[nH]cc2c1NC1=C(C(=O)CCC1)C2c1ccc(Sc2nc3cc(OC(F)(F)F)ccc3[nH]2)o1 (centres unmarked)  Aurora1 (Aurora-B) (Homo sapiens, UniProt Q96GD4)          IC50               19
